Ka values by entry
# Test system: Human immunodeficiency virus 1
# Measurement notes: Binding affinity to HIV-1 FSS RNA assessed as association rate constant by SPR assay

| Mol | Ka, ×10³ /M.s |
| --- | --- |
| CCc1nc2ccccc2cc1C(=O)N(C)[C@@H](CCn1cc(C[C@@H](C(=O)N2CCC[C@H]2C(=O)N(C)[C@@H](Cc2ccccc2)C(N)=O)N(C)C(=O)c2cc3ccccc3nc2CC)nn1)C(=O)N1CCC[C@H]1C(=O)N(C)[C@@H](Cc1ccccc1)C(N)=O | 1.69 |
| CN(C(=O)c1cnc2ccccc2c1)[C@@H](CCn1cc(C[C@@H](C(=O)N2C[C@H](O)C[C@H]2C(=O)N(C)[C@@H](Cc2ccccc2)C(N)=O)N(C)C(=O)c2cnc3ccccc3c2)nn1)C(=O)N1C[C@H](O)C[C@H]1C(=O)N(C)[C@@H](Cc1ccccc1)C(N)=O | 4.09 |
